Target: human full length PDE3A (Homo sapiens (Human), UniProt Q14432)
Sequence (Q14432 whole entry): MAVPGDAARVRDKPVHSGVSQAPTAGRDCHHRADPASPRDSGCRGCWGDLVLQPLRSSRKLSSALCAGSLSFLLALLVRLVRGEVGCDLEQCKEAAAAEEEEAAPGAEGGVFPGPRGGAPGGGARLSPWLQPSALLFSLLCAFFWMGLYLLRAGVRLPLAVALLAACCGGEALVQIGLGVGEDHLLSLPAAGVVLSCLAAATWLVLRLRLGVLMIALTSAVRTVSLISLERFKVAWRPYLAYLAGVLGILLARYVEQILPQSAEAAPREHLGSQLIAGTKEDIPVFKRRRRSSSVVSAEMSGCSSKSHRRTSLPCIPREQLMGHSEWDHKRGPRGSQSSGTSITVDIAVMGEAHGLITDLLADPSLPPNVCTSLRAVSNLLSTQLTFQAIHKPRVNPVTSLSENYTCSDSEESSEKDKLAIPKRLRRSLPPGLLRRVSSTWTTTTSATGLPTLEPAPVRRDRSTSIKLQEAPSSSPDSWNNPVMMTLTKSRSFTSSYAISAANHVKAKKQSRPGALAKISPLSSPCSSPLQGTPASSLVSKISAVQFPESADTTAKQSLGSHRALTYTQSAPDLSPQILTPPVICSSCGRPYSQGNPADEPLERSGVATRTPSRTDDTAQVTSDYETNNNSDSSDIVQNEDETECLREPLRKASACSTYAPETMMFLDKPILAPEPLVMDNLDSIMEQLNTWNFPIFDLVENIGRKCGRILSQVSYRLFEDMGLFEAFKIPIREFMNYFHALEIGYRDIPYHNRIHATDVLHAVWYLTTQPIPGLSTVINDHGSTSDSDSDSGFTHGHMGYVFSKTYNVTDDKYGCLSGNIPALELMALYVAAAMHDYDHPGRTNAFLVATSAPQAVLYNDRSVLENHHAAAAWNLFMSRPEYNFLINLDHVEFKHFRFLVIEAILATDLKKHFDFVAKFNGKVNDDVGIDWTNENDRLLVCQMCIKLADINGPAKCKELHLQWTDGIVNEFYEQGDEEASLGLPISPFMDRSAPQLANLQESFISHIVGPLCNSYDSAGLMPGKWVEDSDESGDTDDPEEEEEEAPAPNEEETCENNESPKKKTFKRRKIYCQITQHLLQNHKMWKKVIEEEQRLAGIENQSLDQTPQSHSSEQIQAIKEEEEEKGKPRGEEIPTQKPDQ
Could you mark each record Yes if its IC50 falls strictly under 70 nM, and No if it equals or exceeds it?

Worked examples follow.
[[record]]
molecule = "COc1ccc(-c2ccc(C3=NNC(=O)O[C@H]3C)cc2C(F)(F)F)cn1 [Example 187]"
group = "No"

[[record]]
molecule = "COC(C)CNc1ccc(C2=NNC(=O)OC2)cc1C(F)(F)F (racemic) [Example 242]"
group = "No"

[[record]]
molecule = "O=C1NN=C(c2ccc(NCc3cc[nH]n3)c(C(F)(F)F)c2)CO1 [Example 237]"
group = "No"

[[record]]
molecule = "O=C1NN=C(c2ccc(-c3cccc(F)c3)c(C(F)(F)F)c2)CO1 [Example 138]"
group = "No"


Take the molecule CC(C)n1cc(-c2ccc(C3=NNC(=O)OC3)cc2C(F)(F)F)cn1 [Example 153] and say whether its IC50 is less than 70 nM.
Yes

Say whether its IC50 is strictly beneath 70 nM. Entry: O=C1NN=C(c2ccc(-c3ccc(C(F)(F)F)s3)c(C(F)(F)F)c2)CO1 [Example 156]
No

Threshold test, IC50 < 70 nM: O=C1NN=C(c2ccc(-c3ccc(C(F)(F)F)cc3)c(C(F)(F)F)c2)CO1 [Example 51]
No

Given Cc1ncc(-c2ccc(C3=NNC(=O)OC3)cc2C)cn1 [Example 28] , is recorded IC50 strictly lower than 70 nM?
Yes

---

We begin with a simple list: items and their reported CLblood dog.
Experiment: Assay 7 in vivo pharmacokinetics in non-rodents (dogs)
Design: species or system Beagle dogs
Conditions: i.v.
API: value field is a number in L/h/kg; no unit string.

Recorded results for 3 compounds are shown here.
[[record]]
test_smiles = "O=C1NN=C(c2ccc(-c3ccc(F)cc3)c(C(F)(F)F)c2)CO1"
result_unit = "L/h/kg"
assay_value = 2.39

[[record]]
test_smiles = "C[C@@H]1OC(=O)NN=C1c1ccc(-c2ccc(F)cc2)c(C(F)(F)F)c1"
result_unit = "L/h/kg"
assay_value = 0.49

[[record]]
test_smiles = "O=C1NN=C(c2ccc(-c3cnn(C(F)F)c3)c(C(F)(F)F)c2)CO1"
result_unit = "L/h/kg"
assay_value = 2.84


Next compound, please.
Any idea what CLblood dog was measured for O=C1NN=C(c2ccc(-c3ccc(Cl)cc3)c(C(F)(F)F)c2)CO1 ?
0.49

---

Listed below: IC50 values for each entry.
Biological target: UniProt Q14432
Assay: Assay 4 PDE3A enzyme inhibition (3H-cAMP SPA)
Format: biochemical
Conditions: Sf9 cell extract
// units = nM; emit number, no label

The following molecules have reported results that may help.
[[record]]
molecule = "CC(C)(C)OC(=O)NCCNc1ccc(C2=NNC(=O)OC2)cc1C(F)(F)F [Intermediate 67]"
assay_value = 6

[[record]]
molecule = "C[C@@H]1OC(=O)NN=C1c1ccc(N2CCN(C)CC2)c(C(F)(F)F)c1"
assay_value = 100

[[record]]
molecule = "O=C1NN=C(c2ccc(-c3cn[nH]c3)c(C(F)F)c2)CO1"
assay_value = 76


Param item = CC1OC(=O)NN=C1c1ccc(-c2cnn(C(F)F)c2)c(C(F)(F)F)c1 (racemic) ; retrieve measured IC50.
48

---

Test system: C32 cells
Test: Assay 1 cell proliferation measurement, C32
Format: cell-based
Details: Homo sapiens, Melanoma, read-out: Anti-proliferation IC50 [nM] C32
Measure Name: IC50 (nM)
Write the value in nM as a bare number.

API: value(readout=IC50, system=C32 cells) for record C[C@@H]1OC(=O)NN=C1c1ccc(-c2ccc(F)cc2)c(C(F)(F)F)c1
15

---

Target or system human full length PDE3B (Homo sapiens (Human)); recorded quantity IC50.
The reply should contain only the number, in nM.

Examples from the recorded data:
[[record]]
molecule = "O=C1NN=C(c2ccc(-c3cc(F)cc(F)c3)c(F)c2)CO1 [Example 110]"
measure_name = "IC50"
assay_value = 140

[[record]]
molecule = "CCOC(C)CNc1ccc(C2=NNC(=O)OC2)cc1C(F)(F)F (racemic) [Example 241]"
measure_name = "IC50"
assay_value = 130

[[record]]
molecule = "C[C@H](O)CNc1ccc(C2=NNC(=O)OC2)cc1C(F)(F)F [Example 218]"
measure_name = "IC50"
assay_value = 89


API: the following record is the query input.
Suppose we examine the molecule O=C1NN=C(c2ccc(-c3ccccc3)c(F)c2)CO1 [Example 89] ; what IC50 value has been reported?
140

---

Tested on: A-2058 cells
Assay: Assay 1 cell proliferation measurement, A-2058
Type: cell-based
Settings: Homo sapiens, A2058; Melanoma; read-out: Anti-proliferation IC50 [nM] A-2058
Items are presented alongside their recorded IC50.
Report only the number, with the unit nM understood.

[[record]]
test_smiles = "O=C1NN=C(c2ccc(-c3ccc(Cl)cc3)c(C(F)(F)F)c2)CO1"
measure_name = "IC50"
result_unit = "nM"
assay_value = 51

[[record]]
test_smiles = "O=C1NN=C(c2ccc(-c3ccc(C(F)F)cc3)c(F)c2)CO1"
measure_name = "IC50"
result_unit = "nM"
assay_value = 18

[[record]]
test_smiles = "C[C@@H]1OC(=O)NN=C1c1ccc(-c2ccc(F)cc2)c(C(F)(F)F)c1"
measure_name = "IC50"
result_unit = "nM"
assay_value = 24

[[record]]
test_smiles = "O=C1NN=C(c2ccc(-c3cnn(C(F)F)c3)c(C(F)(F)F)c2)CO1"
measure_name = "IC50"
result_unit = "nM"
assay_value = 16

[[record]]
test_smiles = "CC(C)(C)CCc1ccc(C2=NNC(=O)OC2)cc1C(F)(F)F"
measure_name = "IC50"
result_unit = "nM"
assay_value = 61


Note: attention shifts to another entry.
# query: IC50 of entry COCCCc1ccc(C2=NNC(=O)OC2)cc1C(F)(F)F
40

---

Attribute: log10(IC50)
Biological target: human full length PDE3B (Homo sapiens (Human), UniProt Q13370)
Sequence (Q13370 whole entry): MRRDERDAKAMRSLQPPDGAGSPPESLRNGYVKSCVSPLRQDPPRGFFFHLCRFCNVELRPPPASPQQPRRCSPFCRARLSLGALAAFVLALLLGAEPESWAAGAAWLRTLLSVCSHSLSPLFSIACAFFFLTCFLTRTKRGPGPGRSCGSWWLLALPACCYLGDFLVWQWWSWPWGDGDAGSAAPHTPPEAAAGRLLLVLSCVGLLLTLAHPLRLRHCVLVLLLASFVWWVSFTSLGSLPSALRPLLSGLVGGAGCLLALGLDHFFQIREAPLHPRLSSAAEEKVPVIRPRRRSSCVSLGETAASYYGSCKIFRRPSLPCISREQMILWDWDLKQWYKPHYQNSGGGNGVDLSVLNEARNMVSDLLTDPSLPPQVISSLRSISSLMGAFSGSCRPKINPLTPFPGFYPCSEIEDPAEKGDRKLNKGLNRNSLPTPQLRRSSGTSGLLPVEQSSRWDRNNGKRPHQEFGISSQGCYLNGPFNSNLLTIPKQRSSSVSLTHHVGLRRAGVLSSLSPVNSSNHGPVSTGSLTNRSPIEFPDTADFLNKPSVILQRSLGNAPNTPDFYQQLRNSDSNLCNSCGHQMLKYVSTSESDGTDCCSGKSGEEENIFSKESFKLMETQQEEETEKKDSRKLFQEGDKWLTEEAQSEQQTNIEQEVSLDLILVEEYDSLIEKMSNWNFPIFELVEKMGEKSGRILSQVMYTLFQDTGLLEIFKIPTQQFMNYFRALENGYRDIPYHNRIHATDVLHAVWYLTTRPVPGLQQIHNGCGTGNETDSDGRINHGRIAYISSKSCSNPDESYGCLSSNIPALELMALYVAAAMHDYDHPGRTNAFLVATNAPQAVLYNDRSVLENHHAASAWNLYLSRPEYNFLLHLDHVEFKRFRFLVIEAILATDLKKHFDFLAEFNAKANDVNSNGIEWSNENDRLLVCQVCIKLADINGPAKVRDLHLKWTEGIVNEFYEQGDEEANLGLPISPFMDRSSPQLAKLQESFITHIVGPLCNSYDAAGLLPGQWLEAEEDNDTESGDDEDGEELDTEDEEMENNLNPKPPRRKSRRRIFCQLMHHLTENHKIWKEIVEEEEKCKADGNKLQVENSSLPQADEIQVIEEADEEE
Assay: Assay 5 PDE3B enzyme inhibition (3H-cAMP SPA)
Format: biochemical
Conditions: Sf9 cell extract
Friendly reminder: values = log10 of IC50, unit nM.

Some solved entries appear below for comparison.
[[record]]
compound = "O=C1NN=C(c2ccc(NCc3ncccn3)c(C(F)(F)F)c2)CO1"
measure_name = "log10(IC50)"
assay_value = 2.18

[[record]]
compound = "C[C@@H]1OC(=O)NN=C1c1cc(F)c(N2CCOCC2)c(F)c1"
measure_name = "log10(IC50)"
assay_value = 1.18

[[record]]
compound = "Cc1ncc(-c2ccc(C3=NNC(=O)OC3)cc2C)cn1"
measure_name = "log10(IC50)"
assay_value = 1.60

[[record]]
compound = "O=C1NN=C(c2ccc(-c3ccc(F)cc3)c(C(F)F)c2)CO1"
measure_name = "log10(IC50)"
assay_value = 2.11

[[record]]
compound = "Cc1ncc(-c2ccc(C3=NNC(=O)OC3)cc2C(F)(F)F)s1"
measure_name = "log10(IC50)"
assay_value = 1.95

[[record]]
compound = "COC/C=C/c1ccc(C2=NNC(=O)OC2)cc1C(F)(F)F"
measure_name = "log10(IC50)"
assay_value = 1.90


Data request, read-out log10(IC50), for C[C@H]1C[C@H](C)N1c1ccc(C2=NNC(=O)OC2)cc1C(F)(F)F (relative stereo)
2.15

// log10(IC50) lookup, key: CC1OC(=O)NN=C1c1ccc(-c2cnn(C(F)F)c2)c(C(F)(F)F)c1 (racemic)
1.76

Can you look up the measured log10(IC50) of C[C@@H]1OC(=O)NN=C1c1ccc(Cl)c(C(F)(F)F)c1 [Intermediate 74] for me?
2.00

Bench note: what log10(IC50) did Cc1ccncc1-c1ccc(C2=NNC(=O)O[C@H]2C)cc1C(F)(F)F show?
2.41

# log10(IC50) lookup, item O=C1NN=C(c2ccc(-c3cnn(C(F)F)c3)c(C(F)F)c2)CO1
1.89

# log10(IC50) lookup, item C[C@@H]1OC(=O)NN=C1c1ccc(N2CCN(C)CC2)c(C(F)(F)F)c1
1.94

Data request, read-out log10(IC50), for C[C@@H]1OC(=O)NN=C1c1ccc(CN2CCOCC2)c(C(F)(F)F)c1
2.90

Sample C[C@@H]1OC(=O)NN=C1c1ccc(F)c(C(F)(F)F)c1 [Intermediate 75] — what was its log10(IC50)?
2.85

Fill blank: measured log10(IC50) of the compound Cc1ccccc1-c1ccc(C2=NNC(=O)OC2)cc1F is ____.
2.43

State the recorded log10(IC50) for this entry: Cc1cc(C2=NNC(=O)OC2)ccc1-c1cn[nH]c1
1.81

Endpoint output: log10(IC50) of NC1CCCC(Nc2ccc(C3=NNC(=O)OC3)cc2C(F)(F)F)C1 (mixture of isomers) . Value?
2.89

Data request, read-out log10(IC50), for CCC1(O)CCN(c2ccc(C3=NNC(=O)OC3)cc2C(F)(F)F)CC1
2.19
